# TARGET UNDER TEST: LXRβ (Homo sapiens (Human))
# ASSAY DETAILS: In vitro assay LXRβ: PathHunter NHR CHO cells, LXRβ / Steroid Receptor Co-activator Peptide enzyme fragment complementation
# Assay type: cell-based
# CONDITION CONTEXT: PathHunter NHR CHO cells, full-length human LXRβ and SRCP, chemiluminescent signal; read-out: LXRβ PPI

COMPOUND: C[C@H](CCC(=O)N1CCCOCC1)[C@H]1CC[C@H]2[C@@H]3CC=C4C[C@@H](O)CC[C@]4(C)[C@H]3CC[C@]12C
EC50: 250 to 1000 nM
//
COMPOUND: C[C@H](CCC(=O)N(C)C1CCN(C(=O)N(C)C)CC1)[C@H]1CC[C@H]2[C@@H]3CC=C4C[C@@H](O)CC[C@]4(C)[C@H]3CC[C@]12C
EC50: > 10000 nM
//
COMPOUND: C[C@H](CCC(=O)N1CCN(C(=O)NC2CC2)CC1)[C@H]1CC[C@H]2[C@@H]3CC=C4C[C@@H](O)CC[C@]4(C)[C@H]3CC[C@]12C
EC50: > 10000 nM
//
COMPOUND: C[C@H](CCc1ncccc1Cl)[C@H]1CC[C@H]2[C@@H]3CC=C4C[C@@H](O)CC[C@]4(C)[C@H]3CC[C@]12C
EC50: 1000 to 10000 nM
//
COMPOUND: CNC(=O)C(=O)O[C@@H](C)[C@H]1CC[C@H]2[C@@H]3CC=C4C[C@@H](O)CC[C@]4(C)[C@H]3CC[C@]12C
EC50: > 10000 nM
//
COMPOUND: C[C@H](CCC(=O)N1CC=C(C2CC2)CC1)[C@H]1CC[C@H]2[C@@H]3CC=C4C[C@@H](O)CC[C@]4(C)[C@H]3CC[C@]12C [Example 193A]
EC50: 250 to 1000 nM

----------
# TARGET UNDER TEST: LXRβ (Homo sapiens (Human), UniProt P55055)
# Sequence (P55055 whole entry, the tested form may be a part): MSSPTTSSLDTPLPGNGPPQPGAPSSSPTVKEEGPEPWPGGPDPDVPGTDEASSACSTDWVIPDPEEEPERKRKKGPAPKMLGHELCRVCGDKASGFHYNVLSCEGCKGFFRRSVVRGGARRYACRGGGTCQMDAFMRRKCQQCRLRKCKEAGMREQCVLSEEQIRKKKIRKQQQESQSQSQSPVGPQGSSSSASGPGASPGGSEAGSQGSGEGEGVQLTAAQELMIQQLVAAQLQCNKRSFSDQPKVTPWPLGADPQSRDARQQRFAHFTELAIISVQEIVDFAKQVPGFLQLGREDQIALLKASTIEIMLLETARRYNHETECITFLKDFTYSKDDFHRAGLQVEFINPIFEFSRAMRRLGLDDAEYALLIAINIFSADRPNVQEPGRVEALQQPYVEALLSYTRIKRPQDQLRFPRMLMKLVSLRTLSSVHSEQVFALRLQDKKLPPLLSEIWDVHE
# ASSAY DETAILS: In vitro assay LXRβ: PathHunter NHR CHO cells, LXRβ / Steroid Receptor Co-activator Peptide enzyme fragment complementation
# Type: cell-based
# CONDITION CONTEXT: PathHunter NHR CHO cells, full-length human LXRβ and SRCP, chemiluminescent signal; read-out: LXRβ PPI
pEC50: −log10 of the molar value.
pEC50 for assorted molecules

MOLECULE: CC(NC(=O)C(C)(C)O)C1CCN(C(=O)CC[C@@H](C)[C@H]2CC[C@H]3[C@@H]4CC=C5C[C@@H](O)CC[C@]5(C)[C@H]4CC[C@]23C)CC1 (stereo partly drawn)
pEC50: < 5.00
--
MOLECULE: COc1ncncc1N1CCN(C(=O)CC[C@@H](C)[C@H]2CC[C@H]3[C@@H]4CC=C5C[C@@H](O)CC[C@]5(C)[C@H]4CC[C@]23C)CC1
pEC50: < 5.00
--
MOLECULE: C[C@@H]1CCN(C(=O)N2CCN(C(=O)CC[C@@H](C)[C@H]3CC[C@H]4[C@@H]5CC=C6C[C@@H](O)CC[C@]6(C)[C@H]5CC[C@]34C)CC2)C1
pEC50: < 5.00
--
MOLECULE: C[C@H](COc1ccncc1)[C@H]1CC[C@H]2[C@@H]3CC=C4C[C@@H](O)CC[C@]4(C)[C@H]3CC[C@]12C
pEC50: < 5.00
--
MOLECULE: C[C@H](CCC(=O)N1CCN(C(=O)c2ncccn2)CC1)[C@H]1CC[C@H]2[C@@H]3CC=C4C[C@@H](O)CC[C@]4(C)[C@H]3CC[C@]12C
pEC50: < 5.00
--
MOLECULE: C[C@H](CCc1cscn1)[C@H]1CC[C@H]2[C@@H]3CC=C4C[C@@H](O)CC[C@]4(C)[C@H]3CC[C@]12C
pEC50: 5.00 to 6.00
